Target: UniProt:Q96FL8
Sequence (Q96FL8 1-570): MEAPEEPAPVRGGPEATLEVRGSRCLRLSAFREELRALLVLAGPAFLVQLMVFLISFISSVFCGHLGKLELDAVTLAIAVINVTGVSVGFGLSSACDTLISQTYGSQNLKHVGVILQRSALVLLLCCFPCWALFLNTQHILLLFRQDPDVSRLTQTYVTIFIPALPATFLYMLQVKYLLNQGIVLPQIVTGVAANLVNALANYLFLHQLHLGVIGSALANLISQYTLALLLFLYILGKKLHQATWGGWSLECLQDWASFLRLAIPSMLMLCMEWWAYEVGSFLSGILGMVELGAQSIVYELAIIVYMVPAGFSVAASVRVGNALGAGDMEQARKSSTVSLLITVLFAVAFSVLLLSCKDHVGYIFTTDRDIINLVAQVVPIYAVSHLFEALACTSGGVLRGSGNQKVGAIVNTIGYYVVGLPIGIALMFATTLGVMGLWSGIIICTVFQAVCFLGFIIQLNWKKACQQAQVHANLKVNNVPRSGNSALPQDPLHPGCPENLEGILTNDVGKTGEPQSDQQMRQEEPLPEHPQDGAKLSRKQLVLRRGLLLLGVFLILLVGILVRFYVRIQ
Measured Attribute: IC50 (nM)
Kindly answer with a numeric value in nM, unit omitted.

Example entries begin here.
Molecule	Measured Attribute	Unit Symbol	Result
CCC(C)n1ncn(-c2ccc(N3CCN(c4ccc(OCC5COC(Cn6cncn6)(c6ccc(Cl)cc6Cl)O5)cc4)CC3)cc2)c1=O (stereo not drawn)	IC50	nM	320
COc1cc2c(Nc3ccc(Br)cc3F)ncnc2cc1OCC1CCN(C)CC1	IC50	nM	130

Proceeding to the next molecule to report its IC50.
Using the record for CC(=O)N1CCN(c2ccc(OCC3COC(Cn4ccnc4)(c4ccc(Cl)cc4Cl)O3)cc2)CC1 (stereo not drawn) , state its measured IC50.
170

###

Target: MATE1 (SLC47A1) (Homo sapiens, UniProt Q96FL8)
Assay: in vitro
Cond: HEK293 cells overexpressing human MATE1
Measured Attribute: Km at 2 min (µM)
Kindly answer with a numeric value in µM, unit omitted.

Using the record for CN(CCOc1ccc(NS(C)(=O)=O)cc1)CCc1ccc(NS(C)(=O)=O)cc1 [dofetilide] , state its measured Km at 2 min.
6.72
